Measured values drawn from ChEMBL document CHEMBL2046404 for this set.

Test system: A549
Assay: Cytotoxicity against human A549 cells after 48 hrs after MTT assay
Format: cell-based
Conditions: A549, 48 h
In this section, each of the compounds is paired with its reported pIC50.
pIC50 (log units): -log10 of the concentration in mol/L.

Answered cases to consult:
COMPOUND	pIC50
CC(c1ccc2sc3ccccc3c2c1)n1cc(-c2ccc(Cl)cc2Cl)nn1 (centres undefined)	3.40
CC(c1ccc2sc3ccccc3c2c1)n1cc(-c2cc(F)cc(F)c2Cl)nn1 (centres undefined)	3.29
CC(c1ccc2sc3ccccc3c2c1)n1cc(-c2cc(F)ccc2F)nn1 (centres undefined)	3.57
CCCc1cn(C(C)c2ccc3sc4ccccc4c3c2)nn1 (centres undefined)	4.17
Cc1ccc(-c2cn(C(C)c3ccc4sc5ccccc5c4c3)nn2)cc1 (centres undefined)	3.97

# input I have this compound here, CC(c1ccc2sc3ccccc3c2c1)n1cc(-c2ccc(Br)cc2F)nn1 (centres undefined) , and I need its recorded pIC50.
# output 3.66

# input Now give it for CC(c1ccc2sc3ccccc3c2c1)n1cc(-c2ccc(F)cc2Cl)nn1 (centres undefined) too.
# output 3.60

# input Now give it for CC(c1ccc2sc3ccccc3c2c1)n1cc(COCc2ccccc2)nn1 (centres undefined) too.
# output 3.72

# input Now give it for CC(c1ccc2sc3ccccc3c2c1)n1cc(-c2ccc(C(C)(C)C)cc2)nn1 (centres undefined) too.
# output 3.32

====

Tested on: Mycobacterium tuberculosis
Assay: Antitubercular activity against Mycobacterium tuberculosis H37Rv ATCC 27294 after 28 days by agar dilution method
Format: functional
Conditions: H37Rv ATCC 27294, 672 h
In this section, each of the compounds is paired with its reported MIC.
I only need the number, in µM, no unit after it.

Answered cases to consult:
COMPOUND	ASSAY ENDPOINT	READOUT UNITS	TEST RESULT
CC(c1ccc2sc3ccccc3c2c1)n1cc(-c2cc(F)cc(F)c2Cl)nn1 (stereo unspecified)	MIC	µM	12.5
CC(c1ccc2sc3ccccc3c2c1)n1cc(-c2ccc(C(C)(C)C)cc2)nn1 (stereo unspecified)	MIC	µM	1.89
CC(c1ccc2sc3ccccc3c2c1)n1cc(-c2ccc(Br)cc2F)nn1 (stereo unspecified)	MIC	µM	3.45
CC(c1ccc2c(c1)c1ccccc1n2C)n1cc(-c2ccc(C(C)(C)C)cc2)nn1 (stereo unspecified)	MIC	µM	30.6
CC(c1ccc2oc3ccccc3c2c1)n1cc(CO)nn1 (stereo unspecified)	MIC	µM	85.3
CC(c1ccc2sc3ccccc3c2c1)n1cc(-c2ccc(F)cc2Cl)nn1 (stereo unspecified)	MIC	µM	1.91
CCCc1cn(C(C)c2ccc3oc4ccccc4c3c2)nn1 (stereo unspecified)	MIC	µM	41
CCCCc1cn(C(C)c2ccc3oc4ccccc4c3c2)nn1 (stereo unspecified)	MIC	µM	39.2

# input Could you share what MIC was measured for CC(c1ccc2sc3ccccc3c2c1)n1cc(-c2cc(F)ccc2F)nn1 (stereo unspecified) , tested on Mycobacterium tuberculosis?
# output 3.98

# input Now give it for CC(c1ccc2sc3ccccc3c2c1)n1cc(-c2ccccc2[N+](=O)[O-])nn1 (stereo unspecified) too.
# output 3.9

# input Now give it for CC(c1ccc2sc3ccccc3c2c1)n1cc(-c2ccsc2)nn1 (stereo unspecified) too.
# output 34.6

====

Tested on: Mycobacterium tuberculosis
Test: Antitubercular activity against Mycobacterium tuberculosis H37Rv ATCC 27294 after 28 days by agar dilution method
Assay type: functional
Settings: H37Rv ATCC 27294, 672 h
ASSAY ENDPOINT: MIC (µM)
I only need the number, in µM, no unit after it.

COMPOUND	READOUT UNITS	MIC
CC(c1ccc2oc3ccccc3c2c1)n1cc(-c2ccccc2[N+](=O)[O-])nn1 (configuration not stated)	µM	16.3
CCCCCCc1cn(C(C)c2ccc3oc4ccccc4c3c2)nn1 (configuration not stated)	µM	18

# input I have this compound here, CC(c1ccc2c(c1)c1ccccc1n2C)n1cc(COCc2ccccc2)nn1 (configuration not stated) , and I need its recorded MIC.
# output 63.1

# input Now give it for CC(c1ccc2sc3ccccc3c2c1)n1cc(CO)nn1 (configuration not stated) too.
# output 20.2

# input Now give it for CC(c1ccc2oc3ccccc3c2c1)n1cc(-c2ccccc2)nn1 (configuration not stated) too.
# output 18.4
